Origin of values: PubChem BioAssay

Measured z-score by item
# Assay overview: compound effects on lung adenocarcinoma cell viability – A549, calcein-AM fluorescence, 48 h, basal, profiling panel (AID 1162); note: test concentration not given here
# Experimental parameters: higher = more signal
When you answer, write just the number.

In the examples that follow, each entry is paired with its recorded z-score.
Compound | z-score
O=C1O[C@H](Cc2ccccc2)[C@@H]2[C@H]3C=CCCC=C3CN2[C@H]1Cc1ccc(O)cc1 | 0.405
O=C(NC1CC1)[C@@H]1c2ccccc2C(=O)N(Cc2ccc(OC(F)(F)F)cc2)[C@H]1c1ccc(CO)cc1 | 1.1
OCCCC1=CC(c2ccc(CN3CCCC3)cc2)N(Cc2cccc(OC(F)(F)F)c2)CC1 (stereo not drawn) | -4.68
O=C1N(CCS(=O)(=O)c2ccccc2)c2ccccc2C[C@]12N=C(c1ccc(OCCCO)cc1)O[C@@H]2c1ccccc1 | -0.982
COC(=O)[C@@]1(Cc2ccc(OC)cc2)[C@H]2c3cc(C(=O)N4CCCC4)n(CCn4cc([N+](=O)[O-])nc4C)c3C[C@H]2CN1C(=O)c1ccccc1 | -1.13

Lab note: `COCCCN1C(=O)[C@@]2(c3ccc([N+](=O)[O-])cc3)CC(=O)N(CC34CC5CC(CC(C5)C3)C4)[C@@H]2c2ccc(CO)cc21` gave z-score of 0.555

Lab note: `O=C1O[C@@H](c2ccccc2)[C@@H](c2ccccc2)N2[C@@H](c3ccc(OCCO)cc3)[C@]3(C(=O)Nc4ccc(C#CCCO)cc43)[C@@H](C(=O)O)[C@H]12` gave z-score of 1.35

Lab note: `Cc1ccc(S[C@]2(C(=O)NCCCN(C)C)CC(=O)N(C3Cc4ccccc4C3)[C@@H]2c2ccc(CO)cc2I)cc1` gave z-score of 0.691

Lab note: `CCOC(=O)C[C@H]1[C@H](OC(=O)c2ccccc2-c2ccccc2)[C@@H](NC(=O)C2CCCCC2)c2cc(OCCCO)ccc2N1C(=O)c1ccc2ccccc2n1` gave z-score of 0.448

Lab note: `CN1C(=O)[C@@H]2[C@@H](CC(COc3ccccc3)=C3[C@@H](CCc4ccccc4)OB(O)C[C@@H]32)C1=O` gave z-score of 0.231

Lab note: `CCOC(=O)C[C@H]1[C@H](OC(=O)c2ccccc2-c2ccccc2)[C@@H](NC(=O)c2ccc3ccccc3c2)c2cc(OCCCO)ccc2N1C(=O)Cc1ccc(OC)cc1` gave z-score of 0.0867

Lab note: `COc1ccc(C(=O)Nc2ccc3c(c2)[C@@]2(O[C@H](CCO)[C@@H]([Si](C)(C)c4ccc(OC)cc4)[C@@H]2C)C(=O)N3Cc2ccccc2)cc1` gave z-score of -1.68

Lab note: `COCCCNC(=O)[C@@]1(CCS(=O)(=O)c2ccccc2)COC(c2ccc(OCCCO)cc2)=N1` gave z-score of -0.222

###

Measured z-score by item
# Assay overview: calcein-AM signal in unstimulated myeloma cells – cell-based, calcein-AM fluorescence, 48 h, PK04 Diversity Set, profiling panel (AID 1166);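 note: cells grown under basal conditions without added stimulus; test concentration not given here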
# Experimental parameters: RPMI8226 myeloma viability, higher = more signal
When you answer, write just the number.

In the examples that follow, each entry is paired with its recorded z-score.
Compound | z-score
O=C1O[C@@H](c2ccccc2)[C@@H](c2ccccc2)N2[C@@H](c3ccc(OCCO)cc3)[C@]3(C(=O)Nc4ccc(C#CC5(O)CCCCCC5)cc43)[C@@H](C(=O)O)[C@H]12 | 0.342
COCCn1c(C(=O)N(C)C)cc2c1C[C@H]1CN(C(=O)c3ccccc3)[C@@](Cc3ccc(OC)cc3)(C(=O)OC)[C@@H]21 | -0.843
COc1ccc([Si](C)(C)[C@H]2[C@H](CCO)O[C@@]3(C(=O)N(Cc4cccc(N5C(=O)c6ccccc6Oc6ccccc65)c4)c4ccccc43)[C@@H]2C)cc1 | -4.3
COc1ccc([Si](C)(C)[C@H]2[C@H](CC(=O)N3CCC[C@H]3CO)O[C@@]3(C(=O)N(Cc4ccc(N5CCCCC5=O)cc4)c4ccccc43)[C@@H]2C)cc1 | -3.5

Lab note: `COc1ccc([Si](C)(C)[C@H]2[C@H](CC(=O)N3Cc4ccccc4C[C@H]3CO)O[C@@]3(C(=O)N(c4ccccc4)c4ccccc43)[C@@H]2C)cc1` gave z-score of -4.49

Lab note: COc1cc(C(O)C2C=CC3C(=O)N(c4ccccc4)C(=O)C3N2Nc2ccccc2F)cc(OC)c1OC (stereo unspecified) gave z-score of -1.63

Lab note: `O=C(O)[C@H](Cc1ccccc1)n1cc(C2(O)CCCCC2)nn1` gave z-score of -0.361

Lab note: CCCCC(O)C1C=CC2C(=O)N(c3ccccc3)C(=O)C2N1Nc1ccccc1 (stereo unspecified) gave z-score of -0.374

Lab note: COc1ccc(C(O)C2C=CC3C(=O)N(c4ccccc4)C(=O)C3N2Nc2ccc([N+](=O)[O-])cc2)c2ccccc12 (stereo unspecified) gave z-score of -0.54
